- Tested on: CCRIS mutagenicity, Ames/micronucleus/aberration tests
- Protocol description: CCRIS mutagenicity studies
- Test context: Test System: AMES SALMONELLA TYPHIMURIUM; Strain/Indicator: TA98; Metabolic Activation: RAT LIVER S-9, AROCLOR 1254; Method: STANDARD PLATE
The source made the active and inactive calls. The rule behind the calls is not given here.
Hi! Could you answer with just one of these? active, inactive

Prompt: Look up the recorded call for COCCN(CCOC)c1cc(NC(C)=O)c(-n2nc3c(Br)cc(N)c(Cl)c3n2)cc1OC in this test.
Completion: active

New cases:
Prompt: I'd appreciate the recorded outcome for O=C1OC(O)C(C(Br)Br)=C1Cl (stereo not drawn) from this test.
Completion: inactive

Prompt: Subsequent entry: Cc1ccc(N)c(O)c1
Completion: inactive

Prompt: Repeat with Cc1ccc(C)c2c1[nH]c1ccccc12
Completion: active

Prompt: And what about the compound C[Si](C)(C)Cl ?
Completion: inactive

Prompt: And for CC1C(C)(C)C2=C(C(=O)CCC2)C1(C)C (stereo not drawn) ?
Completion: inactive

Prompt: Now the compound Cc1ccc(O)c(N)c1
Completion: inactive

---

- Tested on: CCRIS mutagenicity, Ames/micronucleus/aberration tests
- Protocol description: CCRIS mutagenicity studies
- Test context: Test System: AMES SALMONELLA TYPHIMURIUM; Strain/Indicator: TA98; Metabolic Activation: RAT, LIVER, S-9, PHENOBARBITAL AND BETA-NAPHTHOFLAVONE; Method: PREINCUBATION
Active and inactive are the calls of the source. How the calls were made is not given here.
Response enum: true (1) = active, false (0) = inactive

Prompt: Recorded test call requested for Nc1ccccc1S
Completion: false (0)

---

- Test system: CCRIS mutagenicity, Ames/micronucleus/aberration tests
- Protocol description: CCRIS mutagenicity studies
- Test context: Test System: AMES SALMONELLA TYPHIMURIUM; Strain/Indicator: TA1538; Metabolic Activation: RAT, LIVER, S-9, AROCLOR 1254; Method: PREINCUBATION
Active and inactive are the calls of the source. No rule for the calls is given here.
Test readout: mutagenic call

Prompt: Fill in: mutagenic call of C[Si](C)(C)Cl is ___
Completion: inactive; negative

Prompt: Request: CC1=CC(=O)C=C2CC[C@@H]3[C@H](CC[C@]4(C)C(=O)CC[C@@H]34)[C@@]12C
Completion: inactive; negative

Prompt: Subsequent entry: CC(=O)O[C@]1(C(C)=O)CC[C@H]2[C@@H]3C4OC4(Cl)C4=CC(=O)[C@@H]5C[C@@H]5[C@]4(C)[C@H]3CC[C@@]21C (some centres undefined)
Completion: inactive; negative

---

- Test system: CCRIS mutagenicity, Ames/micronucleus/aberration tests
- Protocol description: CCRIS mutagenicity studies
- Test context: Test System: AMES SALMONELLA TYPHIMURIUM; Strain/Indicator: TA98(NR); Metabolic Activation: NONE; Method: STANDARD PLATE
The source made the active and inactive calls. No rule for the calls is given here.
Test readout: mutagenic call

Below are worked cases with known answers.
Prompt: What value of mutagenic call has been recorded for this entry: O=[N+]([O-])c1ccc2ccc3cc4c(c5ccc1c2c35)C=CCC4
Completion: active; positive

Prompt: Next entry: Cn1c(NO)nc2c3cccnc3ccc21
Completion: active; positive

Prompt: Try this molecule too: O=[N+]([O-])c1cccc2c1ccc1cccc([N+](=O)[O-])c12
Completion: active; positive

Prompt: Input O=[N+]([O-])c1ccc2ccc3c4c(cc5ccc1c2c53)C=CCC4
Completion: active; positive

Prompt: Same for O=[N+]([O-])c1ccc2c3c4c(cccc4c4ccccc4c13)C1OC21 (stereo unspecified)
Completion: inactive; negative

Note: attention shifts to another entry.
Prompt: Which mutagenic call value is on record for O=[N+]([O-])c1cc2c([nH]c3ccccc32)c([N+](=O)[O-])c1O ?
Completion: active; positive

---

- Test system: CCRIS mutagenicity, Ames/micronucleus/aberration tests
- Protocol description: CCRIS mutagenicity studies
- Test context: End Point: IN VITRO CHROMOSOMAL ABERRATIONS; Test System: CHINESE HAMSTER OVARY CELLS; Metabolic Activation: NONE
Activity calls are given as the source filed them. No rule for the calls is given here.
Pick from t for active, f for inactive when you respond.

Study these solved cases before continuing.
Prompt: What was the test verdict on CC#N ?
Completion: f

Prompt: // same read-out, input: CC(CN1c2ccccc2Sc2ccccc21)N(C)C (configuration not stated)
Completion: f

Prompt: Another molecule: C1COCCO1
Completion: f

Prompt: And what about the molecule NCCCCCCCCCCC(=O)O ?
Completion: f

Prompt: # iterate: COc1cccc(N)c1
Completion: t

Prompt: What do you get for CCCCOC(=O)c1ccccc1C(=O)OCc1ccccc1 ?
Completion: f

More entries:
Prompt: Field: outcome | Entry: Nc1cc(S(=O)(=O)O)cc2c1C(=O)/C(=N/Nc1ccc(-c3ccc(N/N=C4/C(=O)c5c(N)cc(S(=O)(=O)O)cc5C=C4S(=O)(=O)O)cc3)cc1)C(S(=O)(=O)O)=C2
Completion: f

---

- Tested on: CCRIS mutagenicity, Ames/micronucleus/aberration tests
- Protocol description: CCRIS mutagenicity studies
- Test context: Test System: AMES SALMONELLA TYPHIMURIUM; Strain/Indicator: TA98; Metabolic Activation: RAT, LIVER, S-9, PCB; Method: STANDARD PLATE
- Description: The CCRIS database contains chemical records with carcinogenicity, mutagenicity, tumor promotion, and tumor inhibition test results. It was developed by the National Cancer Institute (NCI). Data are derived from studies cited in primary journals, current awareness tools, NCI reports, and other sources. Test results have been reviewed by experts in carcinogenesis and mutagenesis. CCRIS provides historical information from the years 1985 - 2011. It is no longer updated. […]
Calls of active or inactive are those of the source. The rule behind the calls is not given here.
Test readout: mutagenic call

Worked cases, mutagenic call given:
Prompt: What measured mutagenic call goes with CC(=O)Nc1ccc(Cc2ccc(NC(C)=O)cc2)cc1 ?
Completion: inactive; negative

Prompt: Same question for O=C1C=Cc2ccc3c4c(ccc1c24)C=CC3=O please.
Completion: inactive; negative

Prompt: Further, for Cc1ccc2ccc3ccc(C)cc3c2c1 ?
Completion: active; positive

Prompt: Moving on to Cn1cc(C[C@@]2(O)C(=O)O[C@@H]3[C@@H](O)CO[C@@]32O)c2ccccc21
Completion: active; positive

Prompt: Now give it for Cc1ccc2c(c1)C(=O)c1ccccc1C2=O too.
Completion: inactive; negative

Shift focus to the following entry.
Prompt: For CCN(CC)CCCC(C)Nc1ccnc2cc(Cl)ccc12 (stereo unspecified) , what is its reported mutagenic call?
Completion: inactive; negative

---

- Test system: CCRIS mutagenicity, Ames/micronucleus/aberration tests
- Protocol description: CCRIS mutagenicity studies
- Test context: Test System: AMES SALMONELLA TYPHIMURIUM; Strain/Indicator: TA97; Metabolic Activation: RAT, LIVER, S-9, AROCLOR 1254; Method: PREINCUBATION
Calls of active or inactive are those of the source. The rule behind the calls is not given here.
Test readout: mutagenic call

Prompt: Need mutagenic call, item CNc1ccccc1C(=O)OC
Completion: inactive; negative

Prompt: // next record O=C/C=C/C=C/C=O
Completion: inactive; negative

Prompt: Next compound up: OCC(O)CO
Completion: inactive; negative

Prompt: Request: CCCC(=O)OCC
Completion: inactive; negative

Prompt: Next compound: OCl
Completion: inactive; negative

More entries:
Prompt: I have this compound here, CC(=O)O , and I need its recorded mutagenic call.
Completion: inactive; negative

Prompt: # repeat for NC(CNCCCC[C@H](N)C(=O)O)C(=O)O (some centres not stated)
Completion: inactive; negative

Prompt: Next up: [O-][Cl+]O
Completion: inactive; negative

Prompt: Same lookup for [O-][Br+2]([O-])O , please.
Completion: inactive; negative

Prompt: Record: Nc1ccn([C@@H]2O[C@H](COP(=O)(O)O)[C@@H](O)[C@H]2O)c(=O)n1
Completion: inactive; negative

Prompt: Now this one: COP(=O)(OC)SC
Completion: inactive; negative

Prompt: Also, Cl please.
Completion: inactive; negative

---

- System: CCRIS mutagenicity, Ames/micronucleus/aberration tests
- Protocol description: CCRIS mutagenicity studies
- Test context: Test System: AMES SALMONELLA TYPHIMURIUM; Strain/Indicator: TA1538; Metabolic Activation: HAMSTER, LIVER, S-9, AROCLOR 1254; Method: STANDARD PLATE
- Excerpt: The CCRIS database contains chemical records with carcinogenicity, mutagenicity, tumor promotion, and tumor inhibition test results. It was developed by the National Cancer Institute (NCI). Data are derived from studies cited in primary journals, current awareness tools, NCI reports, and other sources. Test results have been reviewed by experts in carcinogenesis and mutagenesis. CCRIS provides historical information from the years 1985 - 2011. It is no longer updated. […]
Activity calls are given as the source filed them. The rule behind the calls is not given here.
Pick one: class 1 = active, class 0 = inactive

Worked cases, answers included:
Prompt: Recorded call for O=C(C(=O)c1ccccc1)c1ccccc1 ?
Completion: class 0

Prompt: # iterate: CCc1ccco1
Completion: class 0

Prompt: Now the compound CC=O
Completion: class 0

Prompt: Same question, CC(=O)Nc1ccc(O)cc1 this time
Completion: class 0

Prompt: // repeat for c1ccc2cnncc2c1 and report
Completion: class 0

Further cases:
Prompt: Assay result, entry Nc1nc(Cl)cc(Cl)n1 — outcome?
Completion: class 0

Prompt: What do you get for C=C1CC[C@H]2C[C@@H]1C2(C)C ?
Completion: class 0

Prompt: Another compound to check: CC(=O)Oc1ccccc1C(=O)O
Completion: class 0

Prompt: What about O=c1c(O)c(O)c1=O ?
Completion: class 0

Prompt: Cool, now N#CCCNCCC#N
Completion: class 0

Prompt: Also Nc1ccc(S(=O)(=O)Nc2cnc3c(Cl)cccc3n2)cc1 ?
Completion: class 0

Prompt: Same for [O]=[Zr]
Completion: class 0

Prompt: Same question, O=c1[nH]cnc2[nH]ncc12 this time
Completion: class 0

Prompt: Same question, N#CCCN this time
Completion: class 0

Prompt: Try O.O.O.O=C([O-])[C@H]([O-])[C@@H]([O-])C(=O)[O-].O=C([O-])[C@H]([O-])[C@@H]([O-])C(=O)[O-].[K+].[K+].[Sb+3].[Sb+3] next.
Completion: class 0

Prompt: And then CCN(CC[N+](C)(C)C)c1ccc(N=Nc2ccc([N+](=O)[O-])cc2Cl)cc1 , what is it?
Completion: class 1

Prompt: What do you have for C[C@@H]1CC[C@@]2(OC1)O[C@H]1C[C@H]3[C@@H]4CC=C5C[C@@H](O)CC[C@]5(C)[C@H]4CC[C@]3(C)[C@H]1[C@@H]2C ?
Completion: class 0

Prompt: What would you report for CC[C@H](C)[C@@H]([C@@H](CC(=O)N1CCC[C@H]1[C@H](OC)[C@@H](C)C(=O)N[C@@H](Cc1ccccc1)c1nccs1)OC)N(C)C(=O)[C@@H](NC(=O)[C@H](C(C)C)N(C)C)C(C)C ?
Completion: class 0

Prompt: Now consider Nc1ccc(S(=O)(=O)Nc2nccs2)cc1 .
Completion: class 0

Prompt: Now the same for CC/C(C)=N\O
Completion: class 0

Prompt: Queued: Cl/C=C/C[N+]12CN3CN(CN(C3)C1)C2
Completion: class 0

Prompt: Here is the next compound: C=C(Cl)CCl
Completion: class 0

Prompt: Query O=C(/C=C/c1ccc(O)c(O)c1)O[C@@H]1C[C@](O)(C(=O)O)C[C@@H](O)[C@H]1O next
Completion: class 0
